Test system: SK-MEL-28 melanoma
Assay: NCI-60 one-dose screen, 48 h
Settings: 10 µM unless noted
Experimental: Growth inhibition of the SK-MEL-28 human tumor cell line is measured as a screen for anti-cancer activity. Cells are grown in 96 well plates and exposed to the test compound for 48 hours. Compounds are tested at a single concentration, which is 10^-5 M for most compounds. The reported endpoint is percent growth (GI% or GIPRCNT), where numbers from 0 - 100% represent growth inhibition, and numbers from -100% - 0 represent cell death. For example, a value of 40 represents 60% growth inhibition. […]
About 83,000 compounds went through this panel and 20% of them were active in at least one assay; those are over-represented in the sample as a whole. Activity calls are given as the source filed them. Rule for the calls: active = growth percent below 10; inactive = the rest.
Outcomes: 1 = active, 0 = inactive

[[record]]
compound = "CC(=O)O[C@H]1CC2CCC3C(CC[C@@]4(C)C3C[C@H]([N+]3(C)CCCCC3)[C@@H]4OC(C)=O)[C@@]2(C)C[C@@H]1N1CCCCC1 (some centres not stated)"
target_or_system = "SK-MEL-28 melanoma"
class_assignment = 0

[[record]]
compound = "NS(=O)(=O)c1ccccc1NC(=O)Nc1nc2ccccc2s1"
target_or_system = "SK-MEL-28 melanoma"
class_assignment = 0

[[record]]
compound = "O=C(/C=C/c1cn(-c2ccccc2)nc1-c1ccc(Cl)cc1)c1ccc(F)cc1"
target_or_system = "SK-MEL-28 melanoma"
class_assignment = 0

[[record]]
compound = "COc1cc(OC)c(NC(=O)c2cc3ccccc3cc2O)cc1Cl"
target_or_system = "SK-MEL-28 melanoma"
class_assignment = 0

[[record]]
compound = "CCOC(=O)n1ccn(C)c1=S"
target_or_system = "SK-MEL-28 melanoma"
class_assignment = 0

[[record]]
compound = "O=C1/C(=C/c2ccccc2Br)COc2ccc(O)cc21"
target_or_system = "SK-MEL-28 melanoma"
class_assignment = 0

[[record]]
compound = "COC(=O)Nc1nc2ccc(S(=O)c3ccccc3)cc2[nH]1 (configuration not stated)"
target_or_system = "SK-MEL-28 melanoma"
class_assignment = 0

[[record]]
compound = "CC(C)COc1nc2c(c(=O)n(C)c(=O)n2C)n1C"
target_or_system = "SK-MEL-28 melanoma"
class_assignment = 0

[[record]]
compound = "NC(N)=NCCCCCNc1noc(Cc2c[nH]c3cc(Br)ccc23)n1"
target_or_system = "SK-MEL-28 melanoma"
class_assignment = 0

[[record]]
compound = "COc1cc(-c2cncn2-c2ccc(-c3nc4ccc(F)cc4s3)cc2)ccc1F"
target_or_system = "SK-MEL-28 melanoma"
class_assignment = 0

[[record]]
compound = "CC(C)(Sc1cc(C(C)(C)C)c(OC(=O)CCCC(=O)O)c(C(C)(C)C)c1)Sc1cc(C(C)(C)C)c(OC(=O)CCCC(=O)O)c(C(C)(C)C)c1"
target_or_system = "SK-MEL-28 melanoma"
class_assignment = 0

[[record]]
compound = "O=C(CSC(=S)n1cnnc1)NC(=O)c1ccccc1"
target_or_system = "SK-MEL-28 melanoma"
class_assignment = 0

[[record]]
compound = "NC(=O)C(=O)c1ccccc1NC=O"
target_or_system = "SK-MEL-28 melanoma"
class_assignment = 0

[[record]]
compound = "CS(=O)(=O)Nc1cncc(-c2ccc3ncnc(Nc4cncc(Cl)c4)c3c2)c1"
target_or_system = "SK-MEL-28 melanoma"
class_assignment = 0

[[record]]
compound = "CCC(=O)Oc1ccc(-c2ccccc2)cc1Br"
target_or_system = "SK-MEL-28 melanoma"
class_assignment = 0

[[record]]
compound = "CCCCNCCCCCNc1cc(OC)cc2cccnc12"
target_or_system = "SK-MEL-28 melanoma"
class_assignment = 0

[[record]]
compound = "CCOC(=O)C1=C(N)Oc2c(sc3c(F)cccc23)C1c1ccc(O)cc1 (configuration not stated)"
target_or_system = "SK-MEL-28 melanoma"
class_assignment = 0

[[record]]
compound = "CN(C)CCNC(=O)c1cc2c3cc(Cl)ccc3[nH]c2c2ncccc12"
target_or_system = "SK-MEL-28 melanoma"
class_assignment = 1

[[record]]
compound = "O=S(=O)(c1ccccc1)n1cc2c(c1)-c1nc(Nc3ncccn3)sc1CC2"
target_or_system = "SK-MEL-28 melanoma"
class_assignment = 0

[[record]]
compound = "N#Cc1ccc(O)c(C2=NCC(c3cccc(Oc4ccccc4)c3)O2)c1 (configuration not stated)"
target_or_system = "SK-MEL-28 melanoma"
class_assignment = 0

[[record]]
compound = "Cc1c(-c2ccc(O)cc2)n(Cc2ccc(OCCN3CCCCCC3)cc2)c2ccc(O)cc12"
target_or_system = "SK-MEL-28 melanoma"
class_assignment = 0

[[record]]
compound = "O=C1c2ccccc2-c2c1c1c(=O)[nH]c3ccccc3c1n2Cc1ccccc1"
target_or_system = "SK-MEL-28 melanoma"
class_assignment = 0


These measurements were taken from PubChem BioAssay (NCI).
